Data origin: the antibiotic and cytotoxicity screens of Wong et al. (2023)

System: HSkMC (human skeletal muscle cells)
Experiment: cytotoxicity call (relative viability < 0.9)
Conditions: 10 µM
Screen size: about 39,000 compounds; about 1,500 (3.8%) were called active. The full list was thinned out, with actives kept by preference.
endpointLabel: cytotoxicity call

Known results for molecules:
Prompt line: Answer with the recorded cytotoxicity call of C[C@@H]1CCCCO[C@@H](CN(C)Cc2ccc3c(c2)OCO3)[C@@H](C)CN([C@@H](C)CO)C(=O)c2cc(NC(=O)Nc3ccc(C(F)(F)F)cc3)ccc2O1 only.
Response line: active

Prompt line: Answer with the recorded cytotoxicity call of C[C@@H]1CCCCO[C@H](CN(C)S(=O)(=O)c2cn(C)cn2)[C@@H](C)CN([C@@H](C)CO)C(=O)c2cc(NC(=O)Nc3cccc4ccccc34)ccc2O1 only.
Response line: inactive

Prompt line: Answer with the recorded cytotoxicity call of COc1ccc(C#Cc2cnc3c(c2)C(=O)N([C@H](C)CO)C[C@H](C)[C@H](CN(C)CC2CCOCC2)O3)cc1 only.
Response line: inactive

Prompt line: Answer with the recorded cytotoxicity call of C[C@@H]1CN([C@@H](C)CO)C(=O)c2ccccc2-c2ccccc2CO[C@H]1CN(C)C(=O)N[C@H](C)c1ccccc1 only.
Response line: inactive

Prompt line: Answer with the recorded cytotoxicity call of Cc1noc(C)c1NC(=O)N(C)C[C@H]1Oc2ncc(C#CCN(C)C)cc2C(=O)N([C@H](C)CO)C[C@H]1C only.
Response line: inactive

Further cases:
Prompt line: Answer with the recorded cytotoxicity call of C[C@@H]1CN([C@H](C)CO)C(=O)c2cc(NC(=O)Nc3ccc(C(F)(F)F)cc3)ccc2O[C@@H](C)CCCCO[C@@H]1CN(C)Cc1ccc2c(c1)OCO2 only.
Response line: active

Prompt line: Answer with the recorded cytotoxicity call of O=C(C[C@H]1CC[C@@H]2[C@H](COC[C@H](O)CN2S(=O)(=O)c2cccc(F)c2)O1)NCCCN1CCOCC1 only.
Response line: inactive

Prompt line: Answer with the recorded cytotoxicity call of CO[C@H]1/C=C/C[C@H](C)[C@@H](C)S(=O)(=O)NC(=O)c2ccc3c(c2)N(C[C@@H]2CC[C@H]21)C[C@@]1(CCCc2cc(Cl)ccc21)CO3 only.
Response line: active

Prompt line: Answer with the recorded cytotoxicity call of COc1ccc(NC(=O)Nc2ccc3c(c2)[C@H]2C[C@H](CC(=O)N4CCN(C)CC4)O[C@@H](CO)[C@H]2O3)cc1 only.
Response line: inactive

Prompt line: Answer with the recorded cytotoxicity call of COCC(=O)Nc1ccc2c(c1)C(=O)N(C)C[C@@H](OC)[C@@H](C)CN(Cc1cccc(F)c1)[C@@H](C)CO2 only.
Response line: inactive

Prompt line: Answer with the recorded cytotoxicity call of C[C@H]1CN([C@@H](C)CO)C(=O)c2cccc(NC(=O)Nc3ccccc3)c2O[C@H]1CN(C)S(C)(=O)=O only.
Response line: inactive

Prompt line: Answer with the recorded cytotoxicity call of COc1ccc(S(=O)(=O)N(C)C[C@@H]2OCCCC[C@@H](C)Oc3ccc(NC(=O)Nc4ccccc4)cc3C(=O)N([C@@H](C)CO)C[C@H]2C)cc1 only.
Response line: inactive
